assay: self-splicing fitness, log relative to wild type (ln ratio); higher = more splicing; Tetrahymena group I intron in knt gene, E. coli kanamycin selection, DiMSum; sequences stand for … in CUCUCU…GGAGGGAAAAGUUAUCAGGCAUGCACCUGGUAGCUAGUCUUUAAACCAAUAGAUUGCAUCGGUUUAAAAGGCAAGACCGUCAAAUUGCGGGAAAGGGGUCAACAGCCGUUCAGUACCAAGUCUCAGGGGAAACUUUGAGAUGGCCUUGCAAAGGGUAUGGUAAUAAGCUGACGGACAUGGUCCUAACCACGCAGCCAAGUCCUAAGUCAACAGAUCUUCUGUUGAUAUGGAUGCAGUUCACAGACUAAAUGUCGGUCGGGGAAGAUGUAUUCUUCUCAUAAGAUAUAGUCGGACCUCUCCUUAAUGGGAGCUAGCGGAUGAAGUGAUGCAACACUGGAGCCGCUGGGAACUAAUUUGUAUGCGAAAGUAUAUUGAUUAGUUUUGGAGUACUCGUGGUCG;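 further: selection with 25 µg/mL kanamycin versus none on LB agar overnight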
conditions: 37 °C
Label t when self-splicing fitness (ln) >= -1; otherwise f.

In [3]: df
Out[3]:
                   chain  class_assignment
 0  UACCAGCAAUAUUACGCGUC                 f
 1  AUAUAGCAAUAUUACGGGUC                 f
 2  AGGUAGCAAUAUUACGAUAU                 t
 3  UCGUAGCAAUAUUACGAGAU                 f
 4  GCGCAGCAAUAUUACGGACU                 t
 5  UACGAGCAAUAUUACGUCCG                 f
 6  UUACAGCAAUAUUACGGCUU                 f
 7  AACCAGCAAUAUUACGCUCG                 t
 8  UGACAGCAAUAUUACGUUAC                 f
 9  CGGGAGCAAUAUUACGACAG                 t
10  GAUGAGCAAUAUUACGGGGC                 f
11  GUGCAGCAAUAUUACGUGAU                 t

---

assay: self-splicing fitness, log relative to wild type (ln ratio); higher = more splicing; Tetrahymena group I intron in knt gene, E. coli kanamycin selection, DiMSum; sequences stand for … in CUCUCU…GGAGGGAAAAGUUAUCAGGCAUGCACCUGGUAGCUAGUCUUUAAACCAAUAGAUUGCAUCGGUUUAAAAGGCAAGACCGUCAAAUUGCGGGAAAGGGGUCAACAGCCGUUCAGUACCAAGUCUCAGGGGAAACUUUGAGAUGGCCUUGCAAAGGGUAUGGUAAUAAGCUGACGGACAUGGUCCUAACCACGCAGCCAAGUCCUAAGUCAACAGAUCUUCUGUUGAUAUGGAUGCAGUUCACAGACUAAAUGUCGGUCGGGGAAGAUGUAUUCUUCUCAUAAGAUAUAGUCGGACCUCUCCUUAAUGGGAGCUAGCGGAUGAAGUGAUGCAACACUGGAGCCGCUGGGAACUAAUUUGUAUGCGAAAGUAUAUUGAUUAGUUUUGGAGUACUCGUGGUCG
conditions: 30 °C
Label Met when self-splicing fitness (ln) >= -3; otherwise Not met.

                   chain  class_assignment
 0  AACCAGCAAUAUUACGUCGC               Met
 1  AGGAAGCAAUAUUACGAAGA               Met
 2  AUGAAGCAAUAUUACGGUCG               Met
 3  AUUCAGCAAUAUUACGUACA               Met
 4  UCACAGCAAUAUUACGAAAC           Not met
 5  GUAUAGCAAUAUUACGGGGU           Not met
 6  AAGCAGCAAUAUUACGGGUA               Met
 7  GCCCAGCAAUAUUACGAACG               Met
 8  UUUUAGCAAUAUUACGGCAA               Met
 9  GUAAAGCAAUAUUACGGCUC               Met
10  CUUGAGCAAUAUUACGUCUU           Not met
11  UCCCAGCAAUAUUACGCGAG           Not met
12  ACUCAGCAAUAUUACGUCGA           Not met
13  UCGCAGCAAUAUUACGCAGA           Not met
14  UCACAGCAAUAUUACGACUC           Not met
15  AAGCAGCAAUAUUACGUCAA               Met
16  ACGCAGCAAUAUUACGUUAA           Not met
17  UAGGAGCAAUAUUACGUUUA               Met
18  UCCUAGCAAUAUUACGACAU           Not met
19  GCGGAGCAAUAUUACGUAGC               Met
20  CAACAGCAAUAUUACGGUGC           Not met
21  ACCGAGCAAUAUUACGGUAA               Met
22  UUCAAGCAAUAUUACGCCCG               Met
23  GGGAAGCAAUAUUACGUAUC               Met
24  GCUAAGCAAUAUUACGCCAA               Met
25  UUGAAGCAAUAUUACGGCGA               Met
26  UUCCAGCAAUAUUACGGUGU               Met
27  UGCCAGCAAUAUUACGGAUG               Met
